Ref: ChEMBL document CHEMBL5442168

assay: Mouse liver microsomal stability of compound in microsomal protein, PBS buffer pH 7.4, NADPH, glucose-6-phosphate and glucose-6-phosphate dehydrogenase media. Aliquotes were taken at 5 time points and after stopping the reaction, supernatants were analyzed using HPLC coupled with a tandem mass spectrometer. The elimination constant, half-life, and intrinsic clearance are determined as results using linear regression analysis. The assay has been performed by Enamine biological services, Bienta Ltd.The protocol is publicly available: dx.doi.org/10.17504/protocols.io.5qpvokdb9l4o/v1; type: ADME, microsomes, Microsome; details: liver microsomes
Would you mind telling me the reported log10 half-life of each entry?
Log scale reminder: half-life in min, then log10 taken.

{"structure.smiles": "CC(C)[C@H](Nc1ncnc2[nH]c(-c3cnn(C)c3C#N)cc12)c1ccc2c(n1)NC(=O)CO2", "observed": 1.11}
{"structure.smiles": "CC(C)[C@H](Nc1ncnc2[nH]c(-c3cnn(CC(N)=O)c3)cc12)c1ccc2c(n1)OCCO2", "observed": 2.56}
{"structure.smiles": "COc1ccc2c(c1)CCN(c1ncnc3[nH]ccc13)[C@H]2C(C)C", "observed": 0.72}
{"structure.smiles": "CNC(=O)c1c[nH]c2ncnc(N[C@@H](c3ccc4c(c3)NC(=O)CO4)C(C)C)c12", "observed": 1.17}
{"structure.smiles": "CCNC(=O)c1cc2c(N[C@@H](c3ccc4c(c3)OCCO4)C(C)C)ncnc2[nH]1", "observed": 1.28}
{"structure.smiles": "CC(C)(C)[C@@H](Nc1ncnc2[nH]c(-c3cnn(CC(N)=O)c3)cc12)c1ccc2c(c1)OCCO2", "observed": 1.55}

For each of the compounds below, note its log10 half-life.
1. CNC(=O)c1cc2c(N[C@H](c3ccc4c(c3)S(=O)(=O)CCC4)C(C)C)ncnc2[nH]1
2. CC(C)[C@@H](Nc1ncnc2[nH]c(C(=O)N[C@@H]3CCN(C)C3)cc12)c1ccc2c(c1)S(=O)(=O)CCC2
3. CC(C)[C@@H](Nc1ncnc2[nH]c(-c3cnn(CC(N)=O)c3)cc12)c1ccc2c(c1)NC(=O)CO2
4. CC(C)[C@H](Nc1ncnc2[nH]ccc12)c1ccc2c(c1)NC(=O)CO2
5. CC(C)[C@@H](Nc1ncnc2[nH]c(-c3ccc4cncn4c3)cc12)c1ccc2c(c1)S(=O)(=O)CCC2
6. CC(C)[C@H](Nc1ncnc2[nH]c(-c3cnn(C)c3C#N)cc12)c1ccc2c(c1)OCCO2

Result string:
[1.55, 2.18, 2.19, 1.65, 0.99, 0.81]

For each of the compounds below, note its log10 half-life.
1. CNC(=O)c1cc2c(N[C@@H](c3ccc4c(c3)NC(=O)CO4)C(C)C)ncnc2[nH]1
2. CNC(=O)c1c[nH]c2ncnc(N[C@H](c3ccc4c(c3)S(=O)(=O)CCC4)C(C)C)c12

Result string:
[1.93, 0.34]

====

test: Human liver microsomal stability of compound in microsomal protein, PBS buffer pH 7.4, NADPH, glucose-6-phosphate and glucose-6-phosphate dehydrogenase media. Aliquotes were taken at 5 time points and after stopping the reaction, supernatants were analyzed using HPLC coupled with a tandem mass spectrometer. The elimination constant, half-life, and intrinsic clearance are determined as results using linear regression analysis. The assay has been performed by Enamine biological services, Bienta Ltd.The protocol is publicly available: dx.doi.org/10.17504/protocols.io.5qpvokdb9l4o/v1; assay type: ADME, microsomes, Microsome; details: liver microsomes
result.type: microsomal CLint
I'd appreciate it if you wrote the number followed by its unit.

# example entries with known answers
{"structure.smiles": "CC(C)[C@H](Nc1ncnc2[nH]c(-c3cnn(C)c3C#N)cc12)c1ccc2c(c1)S(=O)(=O)CCC2", "microsomal CLint": "935 µL/min/mg"}
{"structure.smiles": "CNC(=O)Cn1cc(-c2cc3c(N[C@H](c4ccc5c(c4)S(=O)(=O)CCC5)C(C)C)ncnc3[nH]2)cn1", "microsomal CLint": "92 µL/min/mg"}
{"structure.smiles": "Cc1nn(C)cc1-c1cc2c(N[C@H](c3ccc4c(c3)S(=O)(=O)CCC4)C(C)C)ncnc2[nH]1", "microsomal CLint": "273 µL/min/mg"}
{"structure.smiles": "CC(C)[C@@H](Nc1ncnc2[nH]c(-c3cnn(C)c3C#N)cc12)c1ccc2c(c1)OCCO2", "microsomal CLint": "74 µL/min/mg"}
{"structure.smiles": "CC(C)[C@@H](Nc1ncnc2[nH]ccc12)c1ccc2c(c1)S(=O)(=O)CCC2", "microsomal CLint": "37 µL/min/mg"}
{"structure.smiles": "O=C(Nc1cccc2c(C(=O)N[C@@H]3c4ccccc4C[C@@H]3C(=O)O)c[nH]c12)NC1CC1", "microsomal CLint": "6 µL/min/mg"}
{"structure.smiles": "CC(C)[C@H](Nc1ncnc2[nH]c(-c3cnn(CC(=O)N(C)C)c3)cc12)c1ccc2c(c1)OCCO2", "microsomal CLint": "500 µL/min/mg"}

Now for another entry.
Query string: Item under review: CNC(=O)c1c[nH]c2ncnc(N[C@@H](c3ccc4c(c3)NC(=O)CO4)C(C)C)c12 . Reported microsomal CLint?
Result string: 86 µL/min/mg
